Voltage-gated inwardly rectifying potassium channel KCNH2 (Homo sapiens, UniProt Q12809) Ki data
Sequence (Q12809 whole entry): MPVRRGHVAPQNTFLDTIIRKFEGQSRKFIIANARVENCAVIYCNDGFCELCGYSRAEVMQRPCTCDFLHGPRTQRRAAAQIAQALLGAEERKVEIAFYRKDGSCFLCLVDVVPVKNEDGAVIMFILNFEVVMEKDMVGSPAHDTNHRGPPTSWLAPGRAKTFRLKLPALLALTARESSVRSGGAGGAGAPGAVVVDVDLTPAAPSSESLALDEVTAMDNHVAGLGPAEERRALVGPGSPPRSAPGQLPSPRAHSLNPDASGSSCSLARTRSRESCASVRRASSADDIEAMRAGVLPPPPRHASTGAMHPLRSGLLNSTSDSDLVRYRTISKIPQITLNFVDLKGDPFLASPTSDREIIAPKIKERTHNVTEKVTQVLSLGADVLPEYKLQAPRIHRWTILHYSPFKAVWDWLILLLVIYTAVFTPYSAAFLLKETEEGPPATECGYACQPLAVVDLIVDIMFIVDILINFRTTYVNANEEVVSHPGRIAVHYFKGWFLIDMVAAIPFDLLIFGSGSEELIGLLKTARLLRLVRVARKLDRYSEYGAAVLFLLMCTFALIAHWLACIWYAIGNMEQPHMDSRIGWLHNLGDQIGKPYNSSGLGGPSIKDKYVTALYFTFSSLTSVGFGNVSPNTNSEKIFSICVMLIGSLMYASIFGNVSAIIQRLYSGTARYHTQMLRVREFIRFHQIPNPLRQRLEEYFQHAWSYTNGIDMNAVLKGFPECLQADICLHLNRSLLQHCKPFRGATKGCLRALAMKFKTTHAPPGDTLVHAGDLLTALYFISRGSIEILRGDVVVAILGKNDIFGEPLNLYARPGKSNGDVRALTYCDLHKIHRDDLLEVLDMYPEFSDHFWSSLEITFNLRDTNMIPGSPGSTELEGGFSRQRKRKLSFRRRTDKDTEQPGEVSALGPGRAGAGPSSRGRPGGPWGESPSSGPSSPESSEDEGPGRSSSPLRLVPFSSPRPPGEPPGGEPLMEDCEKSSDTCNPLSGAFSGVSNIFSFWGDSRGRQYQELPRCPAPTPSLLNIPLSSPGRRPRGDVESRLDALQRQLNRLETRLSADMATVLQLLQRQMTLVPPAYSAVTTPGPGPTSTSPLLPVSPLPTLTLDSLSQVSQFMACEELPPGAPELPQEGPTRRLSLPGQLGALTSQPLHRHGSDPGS

smiles text | target entity | comparative sign | Ki / µM
C[C@H](Oc1cc2cc(C(N)=O)ccc2nc1N)c1ncc(F)cc1-n1cccn1 | Voltage-gated inwardly rectifying potassium channel KCNH2 (Homo sapiens, UniProt Q12809) | = | 34
C[C@H](Oc1cc2cc(C#N)ccc2nc1N)c1cc(F)c(F)cc1-n1cccn1 | Voltage-gated inwardly rectifying potassium channel KCNH2 (Homo sapiens, UniProt Q12809) | = | 19
C[C@H](Oc1cc2cc(F)ccc2nc1N)c1cc(C(=O)O)ccc1-n1cccn1 | Voltage-gated inwardly rectifying potassium channel KCNH2 (Homo sapiens, UniProt Q12809) | > | 40
C[C@H](Oc1cc2cc(C(N)=O)cc(F)c2nc1N)c1ncc(F)cc1-n1cccn1 | Voltage-gated inwardly rectifying potassium channel KCNH2 (Homo sapiens, UniProt Q12809) | > | 40
C[C@H](Oc1cc2cc(F)ccc2nc1N)c1cc2c(cnn2CCO)cc1-n1cccn1 | Voltage-gated inwardly rectifying potassium channel KCNH2 (Homo sapiens, UniProt Q12809) | = | 8.3
C[C@H](Oc1cc2cc(C(N)=O)ccc2nc1N)c1cc(F)c(F)cc1-n1cccn1 | Voltage-gated inwardly rectifying potassium channel KCNH2 (Homo sapiens, UniProt Q12809) | = | 4.1
C[C@H](Oc1cc2cc(C(N)=O)ccc2nc1N)c1cc2[nH]ncc2cc1-n1cccn1 | Voltage-gated inwardly rectifying potassium channel KCNH2 (Homo sapiens, UniProt Q12809) | = | 13
C[C@H](Oc1cc2cc(F)ccc2nc1N)c1cc2c(cnn2CC(=O)O)cc1-n1cccn1 | Voltage-gated inwardly rectifying potassium channel KCNH2 (Homo sapiens, UniProt Q12809) | > | 40
C[C@H](Oc1cc2cc(F)cc(F)c2nc1N)c1[nH]c(=O)ccc1-n1cccn1 | Voltage-gated inwardly rectifying potassium channel KCNH2 (Homo sapiens, UniProt Q12809) | = | 63
C[C@H](Oc1cc2cc(F)ccc2nc1N)c1cc(F)c(F)cc1-n1cccn1 | Voltage-gated inwardly rectifying potassium channel KCNH2 (Homo sapiens, UniProt Q12809) | = | 4.4
C[C@H](Oc1cc2cc(C(N)=O)ccc2nc1N)c1cc2c(cnn2CCO)cc1-n1cccn1 | Voltage-gated inwardly rectifying potassium channel KCNH2 (Homo sapiens, UniProt Q12809) | > | 40

====

- assay details: Intrinsic clearance in human hepatocytes assessed per million cells
- Type: ADME, cell-based, Hepatocyte
- experimental parameters: read-out: CLH
Listed compounds paired with reported hepatocyte CLint

smiles text | value unit | comparative sign | hepatocyte CLint
C[C@H](Oc1cc2cc(F)cc(F)c2nc1N)c1cc(C(=O)O)ccc1-n1cccn1 | µL/min/1e6 cells | < | 3
C[C@H](Oc1cc2c(F)ccc(F)c2nc1N)c1cc(C(=O)O)ccc1-n1cccn1 | µL/min/1e6 cells | < | 3
C[C@H](Oc1cc2cc(C(N)=O)ccc2nc1N)c1cc2[nH]ncc2cc1-n1cccn1 | µL/min/1e6 cells | < | 3
C[C@H](Oc1cc2cc(C(N)=O)ccc2nc1N)c1cc(F)ccc1-n1cccn1 | µL/min/1e6 cells | = | 13
Cc1n[nH]cc1-c1cnc(N)c(O[C@@H](C)c2cc(F)ccc2-n2cccn2)c1 | µL/min/1e6 cells | = | 23
C[C@H](Oc1cc2cc(C(N)=O)ccc2nc1N)c1cc(F)c(F)cc1-n1cccn1 | µL/min/1e6 cells | = | 14
C[C@H](Oc1cc2cc(C(N)=O)cc(F)c2nc1N)c1ncc(F)cc1-n1cccn1 | µL/min/1e6 cells | = | 4
C[C@H](Oc1cc2cc(C(N)=O)ccc2nc1N)c1ncc(F)cc1-n1cccn1 | µL/min/1e6 cells | < | 2
C[C@H](Oc1cc2cc(F)ccc2nc1N)c1cc(F)c(F)cc1-n1cccn1 | µL/min/1e6 cells | = | 57
